metric: melting point (°C)

The following compounds have reported results that may help.
* O=C(Nc1cccc2c1c(S(=O)(=O)O)cc1oc(-c3ccccc3)nc12)c1ccccc1 | 276
* COc1ccc(Cl)cc1C(=O)NCCc1ccc(S(=O)(=O)NC(=O)NC2CCCCC2)cc1 | 169
* CN1C(=O)c2ccccc2C1OC(=O)c1ccccc1 (stereo not given) | 93
* O=C(O)c1ccc(N2CCCC2)cc1 | 230
* N#C/C(=C\c1ccc(Cl)cc1Cl)c1nc(-c2cccc3ccccc23)cs1 | 132

(1) CCOC(=O)c1nn(-c2ccc(C)cc2)c(C)c1C(=O)c1noc(-c2ccc3ccccc3c2)c1S(=O)(=O)c1ccccc1
(2) COc1cc(F)c(F)cc1C#N
Data request: Between 1 and 2 , which one shows the smaller melting point number? Write the label of whichever entry you select.
Data returned: 2

(A) OCc1ccccc1S
(B) C#CCCCCCCCCCCCCCC
Data request: Between the entries labelled A and B , which has a larger melting point value on record? Respond with the label that goes with your answer.
Data returned: A

###

metric: melting point (°C)

Example entries and their recorded answers appear below.
- ClCCCOc1ccccc1: 12
- CN(C)S(F)(F)F: -78.7
- Nc1ccc(S(=O)(=O)O)cc1: 365
- Nc1ccc(C=O)cc1: 71.5
- CC1=C(C(=O)OC(C)C)C(c2cccc([N+](=O)[O-])c2)NC(=S)N1 (centres undefined): 225

(P) O=C(O)C1=Cc2ccccc2OC1
(Q) N#Cc1ncc(F)cc1F
(R) CCCC#CCCCCCC
Data request: Arrange by melting point, high to low. List the labels in the requested order.
Data returned: P, Q, R

###

metric: melting point (°C)

* C=C(C)CCCCCCCCCCCCC | -7

(a) O=C1OC(c2ccccc2)=N/C1=C/c1ccc(-c2ccccc2[N+](=O)[O-])o1
(b) CCCCCCNC(=O)C=Cc1ccc(O)c(O)c1
(c) Nc1ncccc1Cl
(d) N#CCCCCCN
Data request: # ascending order, key=melting point Give the order by naming the labels one after another as requested.
Data returned: d, c, b, a
(d: -31.4 °C, c: 61 °C, b: 142 °C, a: 210 °C)

(A) O=C(O)C1(C(F)(F)F)CCCCC1
(B) CCOc1cccc(/C=C/C(=O)O)c1
(C) CSc1ccc(S)cc1
Data request: Please produce an ascending ranking of these compounds based on melting point. Return value: ordered labels per request.
Data returned: C, A, B

(I) O=[N+]([O-])c1cccc(CS(=O)(=O)Cl)c1
(II) CCN(CC)C(C)CN1c2ccccc2Sc2ccccc21 (configuration not stated)
Data request: Which one would you say has the larger melting point value: I , or II ? Selection: enter the item's label.
Data returned: I

(1) COC(=O)c1ccccc1SC
(2) O=C(/C=C/c1ccc(Cl)c(Cl)c1)c1ccc2ccccc2c1
(3) CCCC(=O)c1ccc(F)cc1
(4) O=C(O)CCc1ccc2c(c1)NC(=O)CC2
Data request: Sort the compounds on melting point; start with the lowest figure. Output spec: a listing of the labels in the requested order.
Data returned: 3, 1, 2, 4
(3: 37 °C, 1: 65 °C, 2: 153 °C, 4: 240 °C)

(I) Cc1cc2ccccc2n1C
(II) ON(Cc1ccccc1)Cc1ccccc1
(III) Cc1c(C)c2c(c(C)c1O)CCC(C)(C(=O)O)O2 (configuration not stated)
Data request: Reorder: melting point, max to min. Quick reminder: the answer is the labels in the order asked.
Data returned: III, II, I
(III: 189 °C, II: 123 °C, I: 56.5 °C)

(P) CN(C)C(=O)C(c1ccccc1)C(O)c1ccccc1 (configuration not stated)
(Q) O=C(O)Cc1cccc(Br)c1
Data request: Of P and Q , which carries the smaller reported melting point figure? Reply briefly: the label of your chosen item.
Data returned: Q

(a) CC(OC1C(N)C(O)OC(CO)C1O)C(=O)O (configuration not stated)
(b) COC(=O)CCCC(=O)OC
(c) CC1(C)CCC(=O)CC1
Data request: hey, can you rank those compounds up there by melting point? biggest number first please Answer format: the labels, in the requested order.
Data returned: a, c, b
(a: 148 °C, c: 42 °C, b: -37 °C)

(A) COc1cc(C(=O)OCc2cccc(COC(=O)c3cc(OC)c(OC)c(OC)c3)n2)cc(OC)c1OC
(B) Cc1nc(Cl)c(C(N)=O)c(C)c1Cl
Data request: Which of the two items, A and B , has the greater recorded melting point? Indicate which entry you chose by stating its label.
Data returned: B

Data origin: a melting point compilation (Tetko et al.)
